For each entry below, report its VRE 700221 MBEC value.
# Tested on: VRE 700221 biofilms
# EXPERIMENT SUMMARY: Calgary Biofilm Device (CBD) assay, MBC/MBEC
# CONDITION LABEL: CBD, biofilm eradication
Marks after values point to notes of the source that are not given here.

## Task Provide measured VRE 700221 MBEC on VRE 700221 biofilms for CN[C@H](CC(C)C)C(=O)N[C@H]1C(=O)N[C@@H](CC(N)=O)C(=O)N[C@H]2C(=O)N[C@H]3C(=O)N[C@H](C(=O)N[C@H](C(=O)O)c4cc(O)cc(O)c4-c4cc3ccc4O)[C@H](O)c3ccc(c(Cl)c3)Oc3cc2cc(c3O[C@@H]2O[C@H](CO)[C@@H](O)[C@H](O)[C@H]2O[C@H]2C[C@](C)(N)[C@H](O)[C@H](C)O2)Oc2ccc(cc2Cl)[C@H]1O [vancomycin, reference compound] please.
## Result 150 µM

## Task Provide measured VRE 700221 MBEC on VRE 700221 biofilms for CC1=C(C)C(=O)C(COC(=O)OCOc2c(Br)cc(Br)c3nc4cc(Cl)ccc4nc23)=C(C)C1=O [Compound 87A] please.
## Result 3.13^c/3.13^c μM

## Task Provide measured VRE 700221 MBEC on VRE 700221 biofilms for CS(=O)(=O)N1CCN(C(=O)Oc2c(Br)cc(Br)c3nc4ccccc4nc23)C1=O [Compound 76A] please.
## Result 9.38^a/9.38^a μM

## Task Provide measured VRE 700221 MBEC on VRE 700221 biofilms for CCCCCCCCCCCCCCCC[N+](C)(C)Cc1ccccc1.[Cl-] [BAC-16, reference compound] please.
## Result 3.0 µM

## Task Provide measured VRE 700221 MBEC on VRE 700221 biofilms for Cc1ccc2nc3c(O)c(Br)cc(Br)c3nc2c1 [Compound 52A] please.
## Result 3.13 µM

These entries and their values trace back to patent US11053205B2.
